pIC50: −log10 of the molar value.
We begin with pIC50 values for UniProt P00742, as collected from the published literature.
measure: pIC50

Solved entries (count: 6):
compound: COC(=O)C(Cc1cccc(C(=N)N)c1)C(/C=C/c1ccccc1)NS(=O)(=O)c1ccc(-c2ccccc2)cc1 (stereo not drawn)
system_name: UniProt P00742
pIC50: 5.71
//
compound: N=C(c1ccc(CN2CCN(S(=O)(=O)c3cc4cc(Cl)ccc4[nH]3)CC2=O)cc1)N1CCC1
system_name: UniProt P00742
pIC50: 8.10
//
compound: N=C(c1ccc(C(=O)Nc2ccc(Cl)cc2C(=O)Nc2ccc(Cl)cn2)cc1)N1CCC1
system_name: UniProt P00742
pIC50: 8.92
//
compound: O=C(NC[C@@H]1OC(=O)N2c3ccc(N4CCOCC4=O)cc3OC[C@@H]12)c1cc2cc(Cl)ccc2s1
system_name: UniProt P00742
pIC50: 4.59
//
compound: COc1cc2c(cc1OC)CN(C(=O)Cc1ccc(Cl)cc1)[C@H](C(=O)N(C)c1ccc(N3CCCCC3=O)cc1)C2
system_name: UniProt P00742
pIC50: 5.11
//
compound: CCN(C)C(=N)c1ccc(C(=O)Nc2ccc(Cl)cc2C(=O)Nc2ccc(Cl)cn2)cc1
system_name: UniProt P00742
pIC50: 9.05

P = COc1ccc(NC(=O)c2ccc(N3CCCCC3=O)cc2)c(C(=O)Nc2ccc(Cl)cc2)c1
Q = O=C(Cc1ccc2[nH]c(-c3ccc(Br)s3)nc2c1)NCC1CCN(c2ccncc2)CC1
Problem: Hi! Which is lower in terms of pIC50, the first one P or the second one Q ? Indicate your choice by writing its label.
Solution: P

1 = O=C(NC[C@@H]1OC(=O)N2c3ccc(N4CCOCC4=O)cc3OC[C@@H]12)C(=O)Nc1ccc(Cl)cn1
2 = CCN(C)C(=N)c1ccc(NC(=O)c2cc(C)nn2-c2cc3ccccc3cc2F)c(F)c1
3 = N=C(N)NCCC[C@@H](NC(=O)CN1CCCC(CCC2CCNCC2)C1=O)C(=O)c1nccs1 (stereo partly drawn)
4 = CN(C)C(=N)c1ccc(NC(=O)c2nnnn2-c2ccc3cc(Cl)ccc3c2)c(F)c1
Problem: Sort these compounds on pIC50 so the largest reading comes first. Order the labels as requested and give them as your answer.
Solution: 4, 2, 3, 1
